Please respond with reported koff for every item in the list.
Biological target: T1, Cynomolgus TCR(AEA41865/AEA41866)-zipper protein (cynomolgus monkey)
T1 construct: also called cyTCR-zipper protein; cynoTCR zipper
T1 TCR alpha: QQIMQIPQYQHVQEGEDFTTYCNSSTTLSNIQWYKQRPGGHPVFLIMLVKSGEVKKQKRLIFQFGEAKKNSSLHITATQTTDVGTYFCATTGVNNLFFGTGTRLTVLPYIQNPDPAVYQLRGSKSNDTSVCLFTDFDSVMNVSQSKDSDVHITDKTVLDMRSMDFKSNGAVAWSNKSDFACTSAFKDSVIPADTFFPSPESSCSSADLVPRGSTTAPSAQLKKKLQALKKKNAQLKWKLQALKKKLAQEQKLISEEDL
T1 TCR beta: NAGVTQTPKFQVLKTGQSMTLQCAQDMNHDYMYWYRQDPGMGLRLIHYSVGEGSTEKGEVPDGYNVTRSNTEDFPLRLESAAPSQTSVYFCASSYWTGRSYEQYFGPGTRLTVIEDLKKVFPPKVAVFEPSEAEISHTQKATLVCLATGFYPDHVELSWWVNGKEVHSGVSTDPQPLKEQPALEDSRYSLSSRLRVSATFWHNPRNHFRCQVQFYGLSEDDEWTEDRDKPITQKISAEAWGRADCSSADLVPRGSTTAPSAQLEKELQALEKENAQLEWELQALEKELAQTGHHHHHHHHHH
Test: SPR ProteOn off-rate screen
Give bare numbers, in s⁻¹.

Look over these answered cases.
T017000611 (VHH) VHH: EVQLVESGGGVVQPGGSLRLSCVASGDVHQINFYGWYRQAPGKEREKVAHISIGDQTDYADSAKGRFTISRDESKNMVYLQMNSLRPEDTALYFCRAFSKIYPYDYWGQGTLVTVSS; 0.00171
T017000403 (VHH) VHH: EVQLVESGGGVVQPGGSLRLSCVASWDVHQINFLGWYRQAPGKEREKVAHISIGDQTDYADSAKGRFTISRDESKNMVYLQMNSLRPEDTALYFCRAMSRIWPYDYWGQGTLVTVSS; 0.00152
T017000498 (VHH) VHH: EVQLVESGGGVVQPGGSLRLSCVASGAVHKINFYGWYRQAPGKEREKVAHISIGDQTDYADSAKGRFTISRDESKNMVYLQMNSLRPEDTALYFCRAMSRIWPYDWWGQGTLVTVSS; 0.00223

--- query ---
Ask | Could you tell me which koff is on file for T017000505 (VHH) VHH: EVQLVESGGGVVQPGGSLRLSCVASGDVHQLNFLGWYRQAPGKEREKVAHISIGDQTDYADSAKGRFTISRDESKNMVYLQMNSLRPEDTALYFCRAFSKIYPYDYWGQGTLVTVSS ?
Reply | 0.00143
